Measured values drawn from paper PMC3005895 for this set.

Assayed target: RPA DBD-A/B (Homo sapiens)
Construct: we subcloned amino acids 181–432 of human RPA p70; inferred from pET15b vector and nickel-NTA purification) (N)
Sequence (P27694 181-432): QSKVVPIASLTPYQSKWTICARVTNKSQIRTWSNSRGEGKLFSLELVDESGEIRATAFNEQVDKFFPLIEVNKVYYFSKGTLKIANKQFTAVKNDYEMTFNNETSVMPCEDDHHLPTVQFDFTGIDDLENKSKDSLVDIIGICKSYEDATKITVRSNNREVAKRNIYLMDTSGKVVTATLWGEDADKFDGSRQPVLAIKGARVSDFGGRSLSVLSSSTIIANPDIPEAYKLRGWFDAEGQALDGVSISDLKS
Procedure details: EMSA of RPA DBD-A/B binding to ssDNA
Condition context: EMSA, 125 nM DBD-A/B, 12.5 nM DNA, TDRL-505 10–100 μM; read-out: half-maximal inhibition of DBD-A/B DNA binding activity
pIC50: −log10 of the molar value.
Measure: pIC50

>>> result("CCOc1ccc2cc(C3CC(c4ccc(Br)cc4)=NN3C(=O)CCC(=O)O)c(Cl)nc2c1 (stereo not shown) [TDRL-505]")
"~4.40"
